Where these numbers come from: the RNAGym collection of RNA variant scans (doi:10.1093/nar/gkz1192)

B1: CPEB3 Ribozyme (parent)
chain: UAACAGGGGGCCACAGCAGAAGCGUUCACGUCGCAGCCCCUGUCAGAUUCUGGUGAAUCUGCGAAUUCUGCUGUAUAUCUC

variants of: B1; assay: self-cleavage, relative activity (ratio to wild type); higher = more cleavage; in vitro, sequencing
Answer NOT MET if self-cleavage is under 0.3, and MET if it is 0.3 or more.

Illustrative cases are given below, each with its answer.
{"mutation-string": "A5U C62G", "group": "MET"}
{"mutation-string": "C14A U60C", "group": "NOT MET"}
{"mutation-string": "A18C U72C", "group": "MET"}

Asked: Check if self-cleavage >= 0.3 (inclusive). Item: `U49C`
Given back: MET

Asked: Check if self-cleavage >= 0.3 (inclusive). Item: G42U U66A
Given back: NOT MET

Asked: Check if self-cleavage >= 0.3 (inclusive). Item: G30U A65G
Given back: NOT MET

Asked: Check if self-cleavage >= 0.3 (inclusive). Item: U26C G36A
Given back: NOT MET

Asked: Check if self-cleavage >= 0.3 (inclusive). Item: A20U U76A
Given back: NOT MET

Asked: Check if self-cleavage >= 0.3 (inclusive). Item: G33C U78A
Given back: NOT MET

Asked: Check if self-cleavage >= 0.3 (inclusive). Item: A45G U58G
Given back: NOT MET

Asked: Check if self-cleavage >= 0.3 (inclusive). Item: A13U U31C
Given back: MET
